System: P. falciparum 3D7 gametocytes
Assay: alamarBlue gametocyte viability assay, strain 3D7
Assay type: cell-based, Plasmodium falciparum
Conditions: Malaria Box; DMSO set at 0%, 100 nM epoxomicin set at -100%
Assign classes using reported Max Resp values and the ranges lower (below -80%), middle (-80% to below -30%), upper (-30% or more), please.

{"columns": ["Compound", "Cat"],
 "data": [
  ["Nc1ccc(-c2nc3cc(Cc4ccc5[nH]c(-c6ccc(N)cc6)nc5c4)ccc3[nH]2)cc1", "middle"],
  ["CCn1nc(-c2ccc(C(=O)OC)cc2)nc2c(=O)n(C)c(=O)nc1-2", "lower"],
  ["O=C(Nc1cccc(-c2nc3ccccc3[nH]2)c1)c1cccc(NC(=O)c2ccco2)c1", "upper"],
  ["O=C(Nc1cccc(C(F)(F)F)c1)c1cc(Cl)ccc1O", "lower"],
  ["CCCc1c(C)nc2ccccc2c1O", "upper"],
  ["O=C1c2ccccc2-c2nnc(-c3ccc(Br)cc3)cc21", "upper"],
  ["CN(C)CCCNc1c2ccccc2nc2ccccc12", "lower"],
  ["CC(=O)c1ccc(NC(=O)CSc2nc(-c3ccccc3Cl)ns2)cc1", "middle"],
  ["COc1ccc(CCNC(=O)c2cc(S(=O)(=O)N3CC(C)CC(C)C3)ccc2Sc2ccc(F)cc2)cc1OC (stereo not shown)", "middle"],
  ["CCC(=O)Nc1nnc(Cc2ccc(OC)c(OC)c2)s1", "upper"],
  ["CC(C)(C)c1ccc(O)c(CNC2CCCCC2)c1", "middle"],
  ["CCOc1ccc(CN2CCN(CC(O)COc3ccc(OCC(O)CN4CCN(Cc5ccc(OCC)cc5)CC4)cc3)CC2)cc1 (stereo not shown)", "lower"],
  ["CCOC(=O)C1=C(C)N=c2sc(=Cc3ccccc3O)c(=O)n2C1c1ccc(OC)c2ccccc12 (stereo not shown)", "middle"],
  ["CCOC(=O)c1cn(CC)c2cc(N(C)CCc3ccc(OC)c(OC)c3)c(F)cc2c1=O", "upper"],
  ["O=C(NC1CCN(Cc2ccccc2)CC1)c1cc(-c2cccnc2)nc2ccc(Cl)cc12", "middle"],
  ["Cc1cc(C)cc(Nc2cc(C)nc3nc(C(F)(F)F)nn23)c1", "upper"],
  ["Cc1cc(N2CCCC2)nc(Nc2ccc(NC(=O)CCc3ccccc3)cc2)n1", "middle"],
  ["COc1ccc(C2N(C)c3ccccc3N2C)cc1", "middle"],
  ["Cc1ccccc1OCCSc1nc2ccc(NC(=O)c3ccccc3)cc2s1", "upper"],
  ["COCCN(C(=O)Cc1cccs1)C(C(=O)NCc1ccc(OC)cc1)c1ccc(C(C)C)cc1 (stereo not shown)", "middle"],
  ["Oc1c(C(Nc2ccccn2)c2cccc(Oc3ccccc3)c2)ccc2cccnc12 (stereo not shown)", "lower"],
  ["Cc1cc(C=C2SC(=Nc3ccccc3)N(C3CCCC3)C2=O)c(C)n1-c1ccc(Cl)cc1", "upper"],
  ["CN(C)c1ccc(N=Cc2ccc(N3CCOCC3)cc2)cc1", "lower"],
  ["CC(NCc1ccccc1)c1cc(Cl)ccc1O (stereo not shown)", "middle"],
  ["Cl.OC(CNCc1ccccc1)Cn1c2ccccc2c2ccccc21 (stereo not shown)", "lower"]
]}

* * *

Test system: P. falciparum 3D7 gametocytes
Experiment: alamarBlue gametocyte viability assay, strain 3D7
Format: cell-based, Plasmodium falciparum
Conditions: Malaria Box; DMSO set at 0%, 100 nM epoxomicin set at -100%
Label True for high-side Max Resp (at or above -60%) and False for low-side Max Resp (below it).

{"columns": ["Compound", "Cat"],
 "data": [
  ["Cc1cccc(-n2ncc3c(O)nc(-n4nc(C)cc4NC(=O)c4cc5ccccc5o4)nc32)c1 [MMV403679]", "False"],
  ["OC(CNCC1CCCO1)Cn1c2ccc(Cl)cc2c2cc(Cl)ccc21 (stereo not shown) [MMV396736]", "False"],
  ["c1ccc(CNc2nc(Nc3ccccc3)nc3ccccc23)cc1 [MMV006169]", "False"],
  ["CCOC(=O)C1=CN(C)C=C(C(=O)OCC)C1c1cc(Br)c(OCC)c(OC)c1 [MMV006656]", "False"],
  ["COc1cc2cc(C(=O)Nc3ccccc3)c(N)nc2cc1OC [MMV006767]", "True"],
  ["O=C(CCl)NCCOc1ccc(Cl)cc1Cl [MMV665927]", "False"],
  ["CCOC(=O)c1c(C)n(-c2ccccc2)c2ccc(OC(=O)c3cc(OC)c(OC)c(OC)c3)cc12 [MMV396664]", "True"],
  ["Fc1ccc2[nH]c3c(NCCCN4CCOCC4)ncnc3c2c1 [MMV019871]", "True"],
  ["COCCn1c(C)nc2ccccc2c1=O [MMV665904]", "True"],
  ["CCOC(=O)c1cn(CC)c2cc(N3CCCCC3)c(F)cc2c1=O [MMV665827]", "True"]
]}

* * *

System: P. falciparum 3D7 gametocytes
Assay: alamarBlue gametocyte viability assay, strain 3D7
Assay type: cell-based, Plasmodium falciparum
Settings: Malaria Box; DMSO set at 0%, 100 nM epoxomicin set at -100%
# Max Resp values compiled below
Metric name: Max Resp (%)

{"columns": ["Compound", "Metric name", "Reading"],
 "data": [
  ["COc1ccccc1CNC(=O)C1c2ccccc2C(=O)N(CC(C)C)C1c1cccs1 (stereo not shown) [MMV000648]", "Max Resp", -46],
  ["Clc1ccc2[nH]c3c(NCCCN4CCOCC4)ncnc3c2c1 [MMV006587]", "Max Resp", -49],
  ["CCOC(=O)C1=C(C)N=c2sc(=Cc3cc(Cl)ccc3O)c(=O)n2C1c1ccc(OC)cc1 (stereo not shown) [MMV665971]", "Max Resp", -40],
  ["CCOc1ccc(N2C(N)=NC(N)=NC2(C)C)cc1.Cl [MMV667486]", "Max Resp", -4],
  ["Cl.N=c1n(CCN2CCCCC2)c2ccccc2n1CC(O)c1cccc(Br)c1 (stereo not shown) [MMV665902]", "Max Resp", -99],
  ["COc1cccc(C(=O)Nc2ccc(-c3nc4ccccc4[nH]3)cc2)c1 [MMV019762]", "Max Resp", -1],
  ["Cc1ccc(-c2cc(C(=O)Nc3ccc(S(=O)(=O)N4CCCCC4)cc3)[nH]n2)c(O)c1 [MMV665906]", "Max Resp", -61]
]}

* * *

System: P. falciparum 3D7 gametocytes
Test: alamarBlue gametocyte viability assay, strain 3D7
Type: cell-based, Plasmodium falciparum
Details: Malaria Box; DMSO set at 0%, 100 nM epoxomicin set at -100%
The label criterion met is reserved for Max Resp strictly under -80%; criterion not met covers values equal to or above it.

{"columns": ["Molecule", "Cat"],
 "data": [
  ["COc1ccc(C(=O)C(CCC(CNC(C)(C)C)C(=O)c2ccc(OC)cc2)CNC(C)(C)C)cc1 (stereo not shown) [MMV007591]", "criterion met"],
  ["Cc1ccc(N2C3c4ccccc4N(S(=O)(=O)c4ccc(C)cc4)C2c2ccccc2N3S(=O)(=O)c2ccc(C)cc2)cc1 [MMV007160]", "criterion not met"],
  ["CCOc1cc2c(cc1OCC)C(c1cc(Cl)ccc1O)NCC2 (stereo not shown) [MMV000478]", "criterion not met"],
  ["CCCCCCc1cc(O)c2c3c(c(=O)oc2c1)CCC(C)C3 (stereo not shown) [MMV665987]", "criterion not met"],
  ["COc1ccc(NC(=O)C2c3ccccc3C(=O)N(CC(C)C)C2c2cccs2)cc1Cl (stereo not shown) [MMV000642]", "criterion not met"],
  ["Cc1sc(NC(=O)c2ccco2)c(C(c2cccnc2)N2CCC(Cc3ccccc3)CC2)c1C (stereo not shown) [MMV396663]", "criterion met"]
]}

* * *

# Max Resp values compiled below
Test system: P. falciparum 3D7 gametocytes
Assay: alamarBlue gametocyte viability assay, strain 3D7
Type: cell-based, Plasmodium falciparum
Conditions: Malaria Box; DMSO set at 0%, 100 nM epoxomicin set at -100%
Metric name: Max Resp (%)

{"columns": ["Test smiles", "Metric name", "Unit name", "Reading"],
 "data": [
  ["CCOc1ccc(C2N(C)c3ccccc3N2C)cc1", "Max Resp", "%", -38],
  ["Cc1cc(Nc2ccc(OCc3ccccc3)cc2)nc2cc(O)ccc12", "Max Resp", "%", -30],
  ["Cc1cc(Nc2ccc(C)c(Cl)c2)n2nc(C(F)(F)F)nc2n1", "Max Resp", "%", -2],
  ["Cc1ccc(Nc2nc(NCCO)c3ccccc3n2)cc1C", "Max Resp", "%", -71]
]}

* * *

System: P. falciparum HB3 gametocytes
Assay: alamarBlue gametocyte viability assay, strain HB3
Assay type: cell-based, Plasmodium falciparum
Settings: Plasmodium falciparum, HB3, strain profiling; 11 concentrations, 1:3 dilution, three times; read-out: HB3-gametocytes IC50

{"columns": ["Compound", "Target or system", "Unit name", "IC50"],
 "data": [
  ["[O-][n+]1ccccc1SSc1cccc[n+]1[O-]", "P. falciparum HB3 gametocytes", "nM", 743],
  ["C[C@@H]1CC[C@H]2[C@@H](C)C(=O)O[C@@H]3O[C@@]4(C)CC[C@@H]1[C@]32OO4", "P. falciparum HB3 gametocytes", "nM", 74],
  ["C[C@H]1[C@H](OC(=O)CCC(=O)O)O[C@@H]2O[C@@]3(C)CC[C@H]4[C@H](C)CC[C@@H]1[C@@]24OO3 [Artesunate]", "P. falciparum HB3 gametocytes", "nM", 47],
  ["CCNC(=O)c1noc(-c2cc(C(C)C)c(O)cc2O)c1-c1ccc(CN2CCOCC2)cc1", "P. falciparum HB3 gametocytes", "nM", 42],
  ["CO[C@H]1O[C@@H]2O[C@@]3(C)CC[C@H]4[C@H](C)CC[C@@H]([C@H]1C)[C@@]24OO3", "P. falciparum HB3 gametocytes", "nM", 47]
]}
